system: CAKI-1 renal; assay: NCI-60 one-dose screen, 48 h (100 = growth as untreated, 0 = no growth, -100 = all killed); conditions: 10 µM unless noted
About 83,000 compounds went through this panel and 20% of them were active in at least one assay; those are over-represented in the sample as a whole. Active and inactive are the calls of the source. The calls were made as follows: active = growth percent below 10; inactive = the rest.

{"COMPOUND STRING": "O=C(Oc1cccc2ccccc12)c1ccccc1C(=O)c1ccccc1", "growth": "88.1% (inactive)"}
{"COMPOUND STRING": "CCCCCN(CCCCC)CCCNc1c2c(nc3ccc(Cl)cc13)CCCC2", "growth": "26.6% (inactive)"}
{"COMPOUND STRING": "NC(=O)NC1(C(=O)O)CCCC1", "growth": "99.9% (inactive)"}
{"COMPOUND STRING": "Cc1nn(-c2ccccc2)cc1/C=C1\\SC(N2CCCCC2)=NC1=O", "growth": "39.8% (inactive)"}
{"COMPOUND STRING": "COc1ccc2c(c1)C(=Nc1cc(OC)c(OC)c(OC)c1)C(=O)N2", "growth": "122% (inactive)"}
{"COMPOUND STRING": "O=C(Nc1ccc2c(c1)C(=O)c1ccccc1-2)c1ccccc1", "growth": "74.7% (inactive)"}
{"COMPOUND STRING": "COP(=O)(OC)C(c1ccc(O)cc1)(c1ccc(O)cc1)c1ccc(O)cc1", "growth": "94.9% (inactive)"}
{"COMPOUND STRING": "c1ccc2c(-c3nc4ccccc4[nH]3)cccc2c1", "growth": "61.2% (inactive)"}
{"COMPOUND STRING": "CC(C)Cn1cnc2c(NCn3nc(-c4cc(Cl)cc(Cl)c4Cl)n(/N=C/c4ccc(Cl)cc4)c3=S)nc3ccccc3c21", "growth": "63.9% (inactive)"}
{"COMPOUND STRING": "COC(=O)[C@H](Cc1cnc[nH]1)NC(=O)[C@@H](NC(=O)Nc1cc(C(F)(F)F)cc(C(F)(F)F)c1)C(C)C", "growth": "40.9% [100 µM] (inactive)"}

###

tested on: MDA-MB-231 breast; assay: NCI-60 one-dose screen, 48 h; conditions: 10 µM unless noted
About 83,000 compounds went through this panel and 20% of them were active in at least one assay; those are over-represented in the sample as a whole. Active and inactive are the calls of the source. Rule for the calls: active = growth percent below 10; inactive = the rest.
Classes used: label 1 = active, label 0 = inactive

{"COMPOUND": "COc1ccc(C2=NN(C=O)C(c3cccc(Nc4ccnc5cc(Cl)ccc45)c3)C2)cc1 (configuration not stated)", "CLASSIFICATION": "label 0"}
{"COMPOUND": "COc1ccc(/C=C2\\CCc3ccccc3C2=O)cc1", "CLASSIFICATION": "label 0"}
{"COMPOUND": "COc1ccc(C2=NN(C(C)=O)C(c3c(C)nn(-c4ccccc4)c3N3CCOCC3)C2)cc1 (configuration not stated)", "CLASSIFICATION": "label 0"}
{"COMPOUND": "c1ccc2nc(N/N=C3\\CCCCC3C3CCCCC3)ccc2c1 (configuration not stated)", "CLASSIFICATION": "label 0"}
{"COMPOUND": "C(#Cc1ccccc1C#Cc1ccccn1)c1ccc(OCCCCCCOc2ccc(C#Cc3ccccc3C#Cc3ccccn3)cc2)cc1", "CLASSIFICATION": "label 0"}
{"COMPOUND": "Clc1ccc(C2=NN(c3ccc(Cl)cc3)C(c3cccc(Nc4ccnc5cc(Cl)ccc45)c3)C2)cc1 (configuration not stated)", "CLASSIFICATION": "label 0"}
{"COMPOUND": "CC(=O)[C@H]1CC[C@H]2[C@@H]3C[C@H](C)C4=CC(=O)CC[C@]4(C)[C@H]3C(=O)C[C@]12C", "CLASSIFICATION": "label 0"}
{"COMPOUND": "CN1CCN(c2nc3scc(-c4ccccc4)c3c(=O)[nH]2)CC1", "CLASSIFICATION": "label 0"}
{"COMPOUND": "COc1cc(OC)c2c(c1Cl)O[C@]1(C2=O)C(OCc2ccccc2)=CC(=O)C[C@H]1C", "CLASSIFICATION": "label 0"}
{"COMPOUND": "CC(=O)N1N=C(c2ccc(Cl)cc2)CC1c1c(C)nn(-c2ccccc2)c1N(C)Cc1ccccc1 (configuration not stated)", "CLASSIFICATION": "label 0"}
{"COMPOUND": "CC[C@@H](C)/C=C(C)/C=C/C(=O)c1c(O)c(-c2ccc(O)cc2)cn(OC2CC(=O)CCC(C)OC(=O)CC2O)c1=O (some centres not stated)", "CLASSIFICATION": "label 0"}
{"COMPOUND": "Cc1[nH]cnc1/C=C1\\SC(N2CCCCC2)=NC1=O", "CLASSIFICATION": "label 0"}
{"COMPOUND": "COc1cc(C2=NN(C=O)C(c3cccc(Nc4ccnc5cc(Cl)ccc45)c3)C2)cc(OC)c1OC (configuration not stated)", "CLASSIFICATION": "label 0"}
{"COMPOUND": "Nc1ccc2c(c1Br)Cc1ccccc1-2", "CLASSIFICATION": "label 0"}
{"COMPOUND": "Cc1ccc(C2=Nc3c(ccc4c(C)c(C)c(=O)oc34)OC2)cc1", "CLASSIFICATION": "label 0"}
{"COMPOUND": "CC(NC(=O)Oc1cccc2ccccc12)c1ccccc1 (configuration not stated)", "CLASSIFICATION": "label 0"}
{"COMPOUND": "Cc1sc2nc3c4ccccc4c(NCCCN(C)C)nn3c(=O)c2c1C", "CLASSIFICATION": "label 1"}
{"COMPOUND": "COc1ccc2c(c1)CC/C(=C\\c1ccc(OCC(=O)Nc3nc4ccccc4s3)cc1)C2=O", "CLASSIFICATION": "label 0"}
{"COMPOUND": "CCCCCc1c(C)[nH]c(/C=C2\\N=C(c3ccc[nH]3)C=C2OCc2ccccc2)c1C", "CLASSIFICATION": "label 1"}
{"COMPOUND": "COC(=O)c1cc2oc(/C=N\\NC(=O)c3cc4oc(C)c(C)c4[nH]3)cc2[nH]1", "CLASSIFICATION": "label 0"}
{"COMPOUND": "CCN(CC)c1ccc(C(=C2C=CC(=[N+](CC)Cc3cccc(S(=O)(=O)O)c3)C=C2)c2ccc(N(CC)Cc3cccc(S(=O)(=O)O)c3)cc2)cc1", "CLASSIFICATION": "label 0"}
{"COMPOUND": "CC1CN(CC(O)c2ccc(Br)cc2)CCO1 (configuration not stated)", "CLASSIFICATION": "label 0"}
{"COMPOUND": "CN1CCN(CCCCCN=c2cc3c(=O)n(CCCCCN4CCN(C)CC4)c(=O)c4c(NCCCCCN5CCN(C)CC5)cc5c(O)n(CCCCCN6CCN(C)CC6)c(=O)c2c5c4-3)CC1", "CLASSIFICATION": "label 1"}
{"COMPOUND": "O=[N+]([O-])c1ccc2[nH]cc(-c3c4ccccc4cc4[nH]c5ccc([N+](=O)[O-])cc5c34)c2c1", "CLASSIFICATION": "label 0"}
{"COMPOUND": "Oc1c(N=Nc2nn[nH]n2)ccc2ccccc12", "CLASSIFICATION": "label 0"}
{"COMPOUND": "N#CC1c2ccccc2C=CN1C(=O)N(c1ccccc1)c1ccccc1 (configuration not stated)", "CLASSIFICATION": "label 0"}
{"COMPOUND": "N#Cc1c(NC(=O)c2ccco2)[n+]([O-])c2ccccc2[n+]1[O-]", "CLASSIFICATION": "label 0"}
{"COMPOUND": "COP(=O)(OC)C(c1ccc(O)cc1)(c1ccc(O)cc1)c1ccc(O)cc1", "CLASSIFICATION": "label 0"}
{"COMPOUND": "COc1cnc2c(c1)C(=O)c1c-2n(CCCNC(C)C)c(=O)c2cc(F)ccc12", "CLASSIFICATION": "label 1"}
{"COMPOUND": "C=C(CN1CCc2c([nH]c3ccccc23)C1)c1ccc(C(=O)Nc2ccon2)cc1", "CLASSIFICATION": "label 0"}
{"COMPOUND": "CC1c2ccccc2-c2ccccc2N1C (configuration not stated)", "CLASSIFICATION": "label 0"}
{"COMPOUND": "COc1cc(-c2nnc(-c3nc(-c4cc(OC)c(OC)c(OC)c4)n4ccccc34)o2)ccc1N", "CLASSIFICATION": "label 0"}
{"COMPOUND": "Cc1onc(-c2ccccc2Cl)c1C(=O)N[C@@H]1C(=O)N2[C@@H]1SC(C)(C)[C@@H]2C(=O)O", "CLASSIFICATION": "label 0"}
{"COMPOUND": "COc1ccc2[nH]c(=O)c(CNc3ccc(Nc4nccc(-c5ccc(Cl)cc5)n4)cc3)cc2c1", "CLASSIFICATION": "label 0"}
{"COMPOUND": "C[C@H]1O[C@@H](O[C@H]2[C@@H](O)C[C@H](O[C@H]3[C@@H](O)C[C@H](O[C@H]4CC[C@]5(C)C6C[C@@H](O)[C@]7(C)[C@@H](C8=CC(=O)OC8)CC[C@]7(O)C6CC[C@@H]5C4)O[C@@H]3C)O[C@@H]2C)C[C@H](O)[C@@H]1O (some centres not stated)", "CLASSIFICATION": "label 1"}
{"COMPOUND": "C/C(=C\\CCc1ccoc1)CC/C=C(\\C)CCCN1CCOCC1", "CLASSIFICATION": "label 0"}
{"COMPOUND": "COc1cccc(/C=N\\NC(=O)c2ccncc2)c1O", "CLASSIFICATION": "label 0"}
